Source of measurements: PubChem BioAssay (NCI)

- System: OVCAR-3 ovarian
- assayRemarks: NCI-60 one-dose screen, 48 h (100 = growth as untreated, 0 = no growth, -100 = all killed)
- conditionContext: 10 µM
The panel holds about 83,000 compounds, 20% with a hit somewhere; the sample as a whole holds those more often.
quantityName: growth (%)
# unit: % | format: bare number

Exam item: Give recorded growth with OVCAR-3 ovarian for the following compound: `CCOC(=O)N/N=C/c1ccc(OC)c(OC)c1`
Marked response: 128

Exam item: Next entry: `CN(C)CCCN1c2ccccc2CCc2ccc(Cl)cc21`
Marked response: 72.3

Exam item: Ok, now COc1ccc(/C=C2\CCCC3C2=Nc2ccccc2NC3c2ccc(OC)cc2)cc1 (stereo unspecified)
Marked response: 86.8

Exam item: How about this compound: COc1ccc(C2CC(c3cc(OC)c(OC)c(OC)c3)=NN2)cc1 (stereo unspecified)
Marked response: 35.1

Exam item: How about `COc1cc2cc(Oc3ccc(NC(=O)Nc4ccc(Cl)c(C(F)(F)F)c4)cc3)c(C)nc2cc1OC` ?
Marked response: -27.3

Exam item: What do you get for `CCOC(=O)Cn1c(=O)c2sc3ncccc3c2n2nnc(-c3ccccc3)c12` ?
Marked response: 120

Exam item: Same question for `COc1cccc(N=Nc2cccc(OC)c2)c1` please.
Marked response: 102

Exam item: Now the same for NC1=NC(c2ccc(Cl)cc2)C2=C(N1)/C(=C/c1ccc(Cl)cc1)CCC2 (stereo unspecified)
Marked response: 39.1

Exam item: Would you mind doing `C=CCn1c(SCC(=O)Nc2ccc(C(=O)/C=C/c3ccc(Cl)cc3)cc2)nnc1-c1cc(-c2ccccc2)nc2ccccc12` as well?
Marked response: 63.7

Exam item: Follow-up item: Nc1ncnc2c1ncn2C1(CO)OCC(O)C(O)C1O (stereo unspecified)
Marked response: 103

Exam item: And what about the compound `O=C1/C=C/[C@@H](O)[C@@H]2C[C@@H](O)C[C@H]2/C=C/CCC[C@@H](C(F)(F)F)O1` ?
Marked response: 69.8

Exam item: Next compound up: `CNS(=O)(=O)Oc1ccc(-c2sc3cc(OS(=O)(=O)NC)ccc3c2C(=O)c2ccc(OCCN3CCCCC3)cc2)cc1`
Marked response: 83.6

Exam item: Subsequent entry: `S=c1cnc2ccccc2[nH]1`
Marked response: 106

Exam item: Next compound: `CCn1c(SCCc2ccccc2)nnc1-c1nn(-c2ccc(Cl)cc2Cl)c(-c2ccc(Cl)cc2)c1C`
Marked response: 69.1

Exam item: Proceed to `CS(=O)(=O)c1nccc(-c2c(-c3cccc(O)c3)nc3sccn23)n1`
Marked response: 97

Exam item: One more compound: `COc1ccc(N=Nc2cc(OC)c(OC)c(OC)c2)cc1`
Marked response: 87.7

Exam item: Similarly, COc1cc2ncnc(NC3CCC(O)CC3)c2cc1OC (stereo unspecified) ?
Marked response: 111

Exam item: Lookup CCCCCOC(=O)Nc1nc(=O)n(C2O[C@H](C)[C@@H](O)[C@H]2O)cc1F (stereo partly specified)
Marked response: 106

Exam item: Now the compound `CN(C)CCN(Cc1ccccc1)c1ccc2ccccc2n1`
Marked response: 103

Exam item: Could you do the same for `CCOc1ccccc1/C=N/N1CCCCCC1` , please?
Marked response: 97.1

Exam item: Now the same for COc1ccc(/C(=N\N)C(=O)c2ccccc2)cc1 (tested in a mixture with another compound)
Marked response: 102

* * *

- System: UO-31 renal
- assayRemarks: NCI-60 one-dose screen, 48 h (100 = growth as untreated, 0 = no growth, -100 = all killed)
- conditionContext: 10 µM
About 83,000 compounds went through this panel and 20% of them were active in at least one assay; those are over-represented in the sample as a whole.
quantityName: growth (%)
Please respond with the number in % and leave the unit unwritten.

Exam item: // returns reported growth for input `C[C@@H](O)[C@H]1C(=O)N2C(C(=O)O)=C(SCCN=CN)C[C@H]12`
Marked response: -50.4

Exam item: Also check `O=C(Nc1cc([N+](=O)[O-])c2[nH]c(=O)c3ccccc3c2c1)C(F)(F)F`
Marked response: 54.5

Exam item: // query: `COc1ccc(C(=O)c2cc3c(OC)c(OC)c(OC)cc3[nH]2)cc1`
Marked response: 56

Exam item: Try this compound next: `COc1ccc(Nc2cnc3cc(NS(=O)(=O)c4ccc(C)cc4)ccc3n2)cc1`
Marked response: 59.3

Exam item: One more compound: `O=C(CI)OCC(COC(=O)CI)OC(=O)CI`
Marked response: -89.8

Exam item: Please give the result for `O=C(Cn1cc(CO)nn1)Nc1nc2ccccc2s1` too.
Marked response: 72.6

Exam item: Same again, this time with O=c1oc2c(cc1-c1ccc(F)cc1)C(O)Oc1ccccc1-2 (stereo unspecified)
Marked response: 84.1

Exam item: Now give it for `O=C(O)COc1c(Cl)cc([N+](=O)[O-])cc1Cl` too.
Marked response: 94.2

Exam item: # iterate: `CCOC(=O)CSc1nc(-c2cc(OC)ccc2OC)cc(-c2ccc(OC)cc2)c1C#N`
Marked response: 63

Exam item: Repeat with `C=CCSC(CC)(CC)C(=O)NC`
Marked response: 94.4

Exam item: // repeat for `COc1cc(-c2nn(-c3cccc(NC(=O)CCN4CCN(Cc5ccccc5)CC4)c3)cc2-c2ccncc2)ccc1Cl` and report
Marked response: 15.6

Exam item: Check NC(CSC(c1ccccc1)(c1ccccc1)c1cccc2ccccc12)C(=O)O (stereo unspecified) too.
Marked response: 84.3

Exam item: What about `O=C(CCCNC(=O)c1nc(-c2ccccc2)n(-c2ccccc2)n1)NO` ?
Marked response: 94.5

Exam item: Would you mind doing `COc1cc(C(=O)n2nc(-c3cc(OC)c(OC)c(OC)c3)nc2N)cc(OC)c1OC` as well?
Marked response: 83.2

Exam item: Here is the next compound: CC1=CC2C(C(O)CC3(C)C2CC(C)C32OCOC23COCO3)C2(C)C/C(=C/O)C(=O)C=C12 (stereo unspecified)
Marked response: 10.5

Exam item: Here is the next compound: `C/C(=N\O)c1ccc(NC(=O)CSc2nnc(-c3ccccc3)n2-c2ccccc2)cc1`
Marked response: 76.2

Exam item: Similarly, `COc1ccc2nc3cc(Cl)ccc3c(Nc3cc(CN4CCCC4)c(O)c(CN4CCCC4)c3)c2n1` ?
Marked response: 18.9

Exam item: Same lookup for `S=C(NCc1ccccc1)NCc1ccccc1` , please.
Marked response: 87.1

Exam item: What do you have for `COc1ccc2cc(-c3nc4ccccc4s3)c(Cl)nc2c1OC` ?
Marked response: 64

Exam item: Query CC1OC2CC(=O)OC2C2=C1C(=O)c1c(O)c3c(c(O)c1C2=O)C1CC(O)C3(O)C(C)O1 (stereo unspecified) next
Marked response: 1.82

Exam item: Item: `CNC(=O)c1cn(C2CC2)c2cc(N3CCN(C(=O)c4cc(OC)c(OC)c(OC)c4)CC3)c(F)cc2c1=O`
Marked response: 79

Exam item: Lookup `CC(C)N(CCOc1ccc(-c2nc3sccn3c2-c2ccnc(S(C)(=O)=O)n2)cc1)C(C)C`
Marked response: 70

Exam item: And what about the compound COc1ccc(/C=C2\CCCC3C2=Nc2ccccc2NC3c2ccc(OC)cc2)cc1 (stereo unspecified) ?
Marked response: 74.1

Exam item: Next record, please: `CN(C)CCCN1c2ccccc2CCc2ccc(Cl)cc21`
Marked response: 47.3

Exam item: Similarly, `C[C@H]1[C@H](OC(=O)CCC(=O)O)O[C@@H]2O[C@]3(C)CC[C@H]4[C@H](C)CC[C@@H]1[C@@]24OO3` ?
Marked response: 9.64

Exam item: Let us now turn to O=C1OC(C(Cl)(Cl)Cl)OC1C(Cl)(Cl)Cl (stereo unspecified)
Marked response: 89.4

Exam item: Then what about the compound O=C(Nc1cc(Cl)cc2c1-c1ccc(Cl)cc1C2O)C(Cl)Cl (stereo unspecified) ?
Marked response: 74

Exam item: And the next one, O=c1[nH]c(=O)n(C2C[C@H](O)[C@@H](CO)O2)cc1C(F)(F)F (stereo partly specified) ?
Marked response: 89.7

Exam item: Please do the same for `CN(C)c1ccc(/C=N/NC(=O)c2cccc3ccccc23)c(Cl)c1` as well.
Marked response: 57.5

Exam item: Lookup CCN(CC)c1ccc(/C=C2\SC(=O)C(Nc3nnc(-c4cccnc4SCc4ccccc4)o3)C2=O)cc1 (stereo unspecified)
Marked response: 53.7

Exam item: Input `CCN(CC)CCOc1cccc2c1C(=O)c1cccc(OCCN(CC)CC)c1C2=O`
Marked response: 41

Exam item: Also check `CCNCC(=O)Nc1ccc(C(=O)OCC)cc1`
Marked response: 95

Exam item: Do the same for COC(=O)C1OC1c1cc([N+](=O)[O-])ccc1OC (stereo unspecified) please
Marked response: 74.4

Exam item: Same for Clc1ccc(/C=C2\CCCC3C2=Nc2ccccc2NC3c2ccc(Cl)cc2)cc1 (stereo unspecified)
Marked response: 70.7

Exam item: Also need `O=C(N/N=C/c1c(Cl)cccc1Cl)c1ccccc1Nc1cccc(C(F)(F)F)c1` , thanks.
Marked response: 93.7

Exam item: Subsequent entry: `COc1cc(-c2nc3ccccc3o2)cc(CN2CCCCC2)c1O`
Marked response: 43.9

Exam item: Another compound: `O=C(CCCCC(=O)Oc1c(Cl)cc(Cl)cc1[N+](=O)[O-])Oc1c(Cl)cc(Cl)cc1[N+](=O)[O-]`
Marked response: 87.1

Exam item: Can you check `COc1ccc(-c2nn(-c3cccc(Cl)c3)cc2-c2c(C#N)c(=O)n3[nH]c(-c4ccccc4)nc3c2C#N)cc1` next?
Marked response: 82.5

Exam item: Note, next up: `CC(C)(C)OC(=O)CC(S(=O)(=O)c1ccccc1)S(=O)(=O)c1ccccc1`
Marked response: 61.4

Exam item: Now the compound `CCCCC/C=C/C/C=C/CCCCCCCC1=NC(C)(C)CN1C(C)C`
Marked response: 26.2

Exam item: Let us now turn to `COc1ccc(N(C)c2ncnc3occ(C)c23)cc1`
Marked response: 26.5
